// Ki lookup, one value per entry
target: Cyclin Dependent Kinase 2/Cyclin E1 (CDK2-cycE1) (Homo sapiens); construct: purchased ProQinase 0050-0055-1; assay: CDK2-cycE1 TR-FRET (LANCE) enzyme assay; assay type: biochemical; conditions: read-out: CDK2 activity / potency (enzymatic assay)

1. Cc1nccnc1Nc1cc([C@H]2CC[C@@H](OC(=O)NC(C)C)C2)[nH]n1 :: ≤ 1 nM

# query: Ki of entry CC(C)(C)NC(=O)O[C@@H]1CC[C@H](c2cc(NC(=O)c3ccnnc3)n[nH]2)C1 [Comparator B, reference compound]
1 nM

# query: Ki of entry CC(C)NC(=O)O[C@@H]1CC[C@H](c2cc(Nc3cnccn3)n[nH]2)C1
≤ 1 nM

# query: Ki of entry CC(C)NC(=O)O[C@@H]1CC[C@H](c2cc(Nc3cc(=O)[nH]cn3)n[nH]2)C1
≤ 1 nM

###

// pKi lookup, one value per entry
target: Cyclin Dependent Kinase 4/Cyclin D3 (CDK4-cycD3) (Homo sapiens); construct: purchased Carna Biosciences 04-105; assay: CDK4-cycD3 TR-FRET (LANCE) enzyme assay; format: biochemical; settings: Table O, enzymatic assay
Sequence (P11802 whole entry): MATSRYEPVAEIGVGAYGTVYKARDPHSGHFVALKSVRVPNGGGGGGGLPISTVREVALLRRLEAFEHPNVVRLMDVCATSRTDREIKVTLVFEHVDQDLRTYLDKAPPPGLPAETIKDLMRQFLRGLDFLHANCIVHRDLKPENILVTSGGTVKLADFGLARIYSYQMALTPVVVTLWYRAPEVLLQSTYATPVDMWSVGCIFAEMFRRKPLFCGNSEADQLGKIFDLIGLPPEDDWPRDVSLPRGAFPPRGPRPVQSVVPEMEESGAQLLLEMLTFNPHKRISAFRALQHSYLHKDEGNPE
Sequence (P30281 whole entry partner): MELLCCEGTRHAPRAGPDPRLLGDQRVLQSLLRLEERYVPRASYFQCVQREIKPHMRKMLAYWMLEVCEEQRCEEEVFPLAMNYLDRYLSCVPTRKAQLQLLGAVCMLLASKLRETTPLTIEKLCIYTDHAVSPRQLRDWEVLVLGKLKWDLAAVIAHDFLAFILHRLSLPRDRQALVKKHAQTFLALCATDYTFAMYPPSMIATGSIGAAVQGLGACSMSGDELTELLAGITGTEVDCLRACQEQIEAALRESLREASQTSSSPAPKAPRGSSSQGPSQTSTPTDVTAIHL
Remember the convention: pKi equals -log10 of concentration in molar.

Solved cases below.
1) COc1ncc(Nc2cc([C@H]3CC[C@@H](OC(=O)NC(C)C)C3)[nH]n2)c(C)n1 :: 5.42
2) Cc1cncc(Nc2cc([C@H]3CC[C@@H](OC(=O)NC(C)C)C3)[nH]n2)n1 :: 7.55
3) Cn1cc(Nc2cc([C@H]3CC[C@@H](OC(=O)NC(C)(C)C)C3)[nH]n2)ccc1=O :: 6.15

Next item in the queue.
# query: pKi of entry Cc1cncc(Nc2cc([C@H]3CC[C@@H](OC(=O)NC(C)C)C3)[nH]n2)c1
6.47

###

Molecular target: Cyclin Dependent Kinase 2/Cyclin E1 (CDK2-cycE1) (Homo sapiens)
Construct: purchased ProQinase 0050-0055-1
Test: CDK2-cycE1 TR-FRET (LANCE) enzyme assay
Assay type: biochemical
Conditions: enzymatic assay, Table P; read-out: CDK2 Ki
Experimental: Cyclin Dependent Kinase 1/Cyclin A2 (CDK1-cycA2), Cyclin Dependent Kinase 2/Cyclin E1 (CDK2-cycE1), Cyclin Dependent Kinase 4/Cyclin D3 (CDK4-cycD3) and Cyclin Dependent Kinase 6/Cyclin D3 (CDK6-cycD3) enzyme assays were carried out as described below. […] An Echo acoustic dispenser is used to create dose responses of compound dissolved in DMSO into a 384-well microplate. […] Signal is a ratio of the Acceptor and Donor fluorescence. Inhibition constants are calculated via the Morrison equation. […]
value_type: Ki (nM)
Report only the number, with the unit nM understood.

# query: Ki of entry CC(C)(C)NC(=O)O[C@@H]1CC[C@H](c2cc(Nc3ccnnc3)n[nH]2)C1
0.45

###

Biological target: Cyclin Dependent Kinase 1/Cyclin A2 (CDK1-cycA2) (Homo sapiens)
Construct: purchased ProQinase 0134-0054-1
Sequence (P06493 whole entry): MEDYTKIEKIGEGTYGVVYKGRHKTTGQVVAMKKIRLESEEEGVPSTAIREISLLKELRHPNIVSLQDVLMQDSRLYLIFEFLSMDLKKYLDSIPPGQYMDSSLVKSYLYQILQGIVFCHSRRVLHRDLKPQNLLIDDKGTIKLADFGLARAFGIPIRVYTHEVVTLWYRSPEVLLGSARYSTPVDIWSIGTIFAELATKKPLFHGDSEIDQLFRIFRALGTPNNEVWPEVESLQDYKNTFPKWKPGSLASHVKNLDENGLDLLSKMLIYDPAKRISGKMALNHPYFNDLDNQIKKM
Sequence (P20248 whole entry partner): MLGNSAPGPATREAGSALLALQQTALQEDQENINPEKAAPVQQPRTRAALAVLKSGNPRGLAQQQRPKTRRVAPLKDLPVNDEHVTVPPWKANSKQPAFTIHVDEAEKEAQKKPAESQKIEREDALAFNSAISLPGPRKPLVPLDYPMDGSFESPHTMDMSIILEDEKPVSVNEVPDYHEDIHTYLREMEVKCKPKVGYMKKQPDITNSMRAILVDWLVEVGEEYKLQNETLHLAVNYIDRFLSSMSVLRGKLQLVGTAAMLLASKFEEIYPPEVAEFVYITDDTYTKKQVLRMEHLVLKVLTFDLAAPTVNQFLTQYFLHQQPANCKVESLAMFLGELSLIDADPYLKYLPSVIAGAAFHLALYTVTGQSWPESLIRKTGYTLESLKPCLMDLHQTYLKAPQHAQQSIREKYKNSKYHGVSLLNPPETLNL
Assay: CDK1-cycA2 TR-FRET (Lance) enzyme assay
Assay type: biochemical
Details: Table O, enzymatic assay
Protocol: Cyclin Dependent Kinase 1/Cyclin A2 (CDK1-cycA2), Cyclin Dependent Kinase 2/Cyclin E1 (CDK2-cycE1), Cyclin Dependent Kinase 4/Cyclin D3 (CDK4-cycD3) and Cyclin Dependent Kinase 6/Cyclin D3 (CDK6-cycD3) enzyme assays were carried out as described below. […] An Echo acoustic dispenser is used to create dose responses of compound dissolved in DMSO into a 384-well microplate. […] Signal is a ratio of the Acceptor and Donor fluorescence. Inhibition constants are calculated via the Morrison equation.
// pKi lookup, one value per entry
Remember the convention: pKi equals -log10 of concentration in molar.

Look up pKi with Cyclin Dependent Kinase 1/Cyclin A2 (CDK1-cycA2) (Homo sapiens) for this compound: COc1ccc(Nc2cc([C@H]3CC[C@@H](OC(=O)NC(C)C)C3)[nH]n2)nn1
5.92

Look up pKi with Cyclin Dependent Kinase 1/Cyclin A2 (CDK1-cycA2) (Homo sapiens) for this compound: CC(C)NC(=O)O[C@@H]1CC[C@H](c2cc(Nc3ccc(-n4cccn4)cn3)n[nH]2)C1
6.17

Look up pKi with Cyclin Dependent Kinase 1/Cyclin A2 (CDK1-cycA2) (Homo sapiens) for this compound: CNC(=O)c1ccc(Nc2cc([C@H]3CC[C@@H](OC(=O)NC4(C)CC4)C3)[nH]n2)c(C)n1
6.26

Look up pKi with Cyclin Dependent Kinase 1/Cyclin A2 (CDK1-cycA2) (Homo sapiens) for this compound: CC1(NC(=O)O[C@@H]2CC[C@H](c3cc(Nc4cccnn4)n[nH]3)C2)CC1
7.14

Look up pKi with Cyclin Dependent Kinase 1/Cyclin A2 (CDK1-cycA2) (Homo sapiens) for this compound: CC(C)(C)NC(=O)O[C@@H]1CC[C@H](c2cc(Nc3cccnn3)n[nH]2)C1
7.35

Look up pKi with Cyclin Dependent Kinase 1/Cyclin A2 (CDK1-cycA2) (Homo sapiens) for this compound: Cc1ncccc1Nc1cc([C@H]2CC[C@@H](OC(=O)NC3CC(O)C3)C2)[nH]n1 (stereo partly shown)
6.43
